System: MCF7
assay name: Cytotoxicity against human MCF7 cells after 96 hrs by sulforhodamine B assay
Format: functional, cell-based
assay context: MCF7, 96 h
assay endpoint: IC50 (nM)

[[record]]
smi = "CSSc1cccc[n+]1[O-]"
assay_endpoint = "IC50"
endpoint_result = 350

[[record]]
smi = "CSCSSc1cccc[n+]1[O-]"
assay_endpoint = "IC50"
endpoint_result = 390


----------
assay name: Toxicity in C57BL/6 mouse assessed as maximum tolerated dose administered as single dose via oral gavage for 3 days measured twice daily for 1 week after final dose
Type: organism-based
assay context: in vivo
assay endpoint: MTD at 168 h (mg/kg)

[[record]]
smi = "CSSc1cccc[n+]1[O-]"
units_of_measure = "mg/kg"
endpoint_result = 30


----------
Test system: Staphylococcus aureus
assay name: Antibacterial activity against tetracycline-effluxing Staphylococcus aureus XU212 after 72 hrs
Type: functional
assay context: XU212, 72 h
assay endpoint: MIC (µg/mL)

[[record]]
smi = "CSSc1cccc[n+]1[O-]"
system_under_test = "Staphylococcus aureus"
assay_endpoint = "MIC"
units_of_measure = "µg/mL"
relation = "="
endpoint_result = 1

[[record]]
smi = "CSSc1cccs1"
system_under_test = "Staphylococcus aureus"
assay_endpoint = "MIC"
units_of_measure = "µg/mL"
relation = ">"
endpoint_result = 128

[[record]]
smi = "CSSc1ccccn1"
system_under_test = "Staphylococcus aureus"
assay_endpoint = "MIC"
units_of_measure = "µg/mL"
relation = "="
endpoint_result = 4

[[record]]
smi = "[O-][n+]1ccccc1SSc1cccc[n+]1[O-]"
system_under_test = "Staphylococcus aureus"
assay_endpoint = "MIC"
units_of_measure = "µg/mL"
relation = "="
endpoint_result = 1

[[record]]
smi = "CSSc1ncccn1"
system_under_test = "Staphylococcus aureus"
assay_endpoint = "MIC"
units_of_measure = "µg/mL"
relation = "="
endpoint_result = 4

[[record]]
smi = "CSSc1ccccc1"
system_under_test = "Staphylococcus aureus"
assay_endpoint = "MIC"
units_of_measure = "µg/mL"
relation = ">"
endpoint_result = 128

[[record]]
smi = "CCn1cc(C(=O)O)c(=O)c2cc(F)c(N3CCNCC3)cc21"
system_under_test = "Staphylococcus aureus"
assay_endpoint = "MIC"
units_of_measure = "µg/mL"
relation = "="
endpoint_result = 16

[[record]]
smi = "Cc1onc(-c2ccccc2)c1C(=O)N[C@@H]1C(=O)N2[C@@H]1SC(C)(C)[C@@H]2C(=O)O"
system_under_test = "Staphylococcus aureus"
assay_endpoint = "MIC"
units_of_measure = "µg/mL"
relation = "="
endpoint_result = 128

[[record]]
smi = "CSCSSc1cccc[n+]1[O-]"
system_under_test = "Staphylococcus aureus"
assay_endpoint = "MIC"
units_of_measure = "µg/mL"
relation = "="
endpoint_result = 1

[[record]]
smi = "CSSc1ccc2ccccc2n1"
system_under_test = "Staphylococcus aureus"
assay_endpoint = "MIC"
units_of_measure = "µg/mL"
relation = "="
endpoint_result = 4


----------
assay name: Toxicity in C57BL/6 mouse assessed as maximum tolerated dose administered as single dose via oral gavage for 3 days measured 6 hrs after final dose
Format: organism-based
assay context: in vivo
assay endpoint: MTD at 6 h (mg/kg)

[[record]]
smi = "CSSc1cccc[n+]1[O-]"
assay_endpoint = "MTD at 6 h"
endpoint_result = 30

